- Tested on: L1210 leukemia ip in BDF1 mice, survival T/C
- assay overview: NCI In Vivo Anticancer Drug Screen. Data for tumor model L1210 Leukemia (intraperitoneal) in B6D2F1 (BDF1) mice
- condition parameters: endpoint: mean survival time; dose: 75.0 mg/kg/injection; schedule: Q01DX001 (ip); vehicle: saline; higher = longer survival
- Method: The antitumor activity of compounds was measured in mice bearing transplantable tumors. Survival or tumor size were measured and the results are expressed as the measurement made in the treated group (T) divided by the measurement made in the vehicle treated control group (C). The tumor model used in this assay is L1210 Leukemia (intraperitoneal) in B6D2F1 (BDF1) mice
Toxic doses and inconclusive results are not listed.
Items are presented alongside their recorded T/C.

- compound: "C[n+]1ccc(/C=C/c2ccc(O)c3ccccc23)cc1"
  T/C: "100 % of control"
- compound: "CC12CCC(CC(=O)O1)C2(C)C (centres undefined)"
  T/C: "114 % of control"
- compound: "CC12CCC(/C(=C/N(O)/C=C3\\C(=O)C4(C)CCC3C4(C)C)C1=O)C2(C)C"
  T/C: "96 % of control"
- compound: "Brc1ccc[n+](Cc2ccccc2)c1"
  T/C: "98 % of control"
- compound: "O=S(=O)(Cc1ccccc1)SSS(=O)(=O)Cc1ccccc1"
  T/C: "98 % of control"
- compound: "Cc1csc[n+]1C1CCCCC1"
  T/C: "100 % of control"
- compound: "OC1CSC2=[N+]1CCS2 (centres undefined)"
  T/C: "98 % of control"
- compound: "Nc1ncnc2c1ncn2C1OC(CO)C(NC(=S)SCc2ccccc2)C1O (centres undefined)"
  T/C: "101 % of control"
- compound: "c1cc[nH]c1"
  T/C: "100 % of control"
- compound: "COc1cc2c(cc1OC)C1Cc3cc(OC)c(OC)cc3C(C2)N1"
  T/C: "97 % of control"
- compound: "O=[N+]([O-])c1ccc(S(=O)(=O)SC(F)(F)F)cc1"
  T/C: "106 % of control"
- compound: "Nc1ccccc1CC(C(=O)O)c1ccc2c(c1)OCO2 (centres undefined)"
  T/C: "105 % of control"
- compound: "O=C1C=C(N2CCCC2)CC1"
  T/C: "101 % of control"
- compound: "CC1(c2ccc[n+](CC(=O)c3ccccc3)c2)OCCO1"
  T/C: "104 % of control"

* * *

- Test system: L1210 leukemia ip in BDF1 mice, survival T/C
- assay overview: NCI In Vivo Anticancer Drug Screen. Data for tumor model L1210 Leukemia (intraperitoneal) in B6D2F1 (BDF1) mice
- condition parameters: endpoint: mean survival time; dose: 100.0 mg/kg/injection; schedule: Q01DX001 (ip); vehicle: Klucel (hydroxypropylcellulose) (HPC)
Inconclusive results and toxic doses are left out. Cut-off read from the data, not from the text of the source: active = T/C of 150% or more; inactive = T/C below 125%.
Labels: active, inactive

- molecule: "Cc1cc(C(=O)O)c(C)n1-c1ccccc1C(=O)O"
  tested target: "L1210 leukemia ip in BDF1 mice, survival T/C"
  group: "inactive"
- molecule: "O=C1C=C(N2CCOCC2)c2cccc3cccc1c23"
  tested target: "L1210 leukemia ip in BDF1 mice, survival T/C"
  group: "inactive"
- molecule: "CCOC(=O)C/C(C(=O)O)=C(\\C)c1ccc2ccccc2c1"
  tested target: "L1210 leukemia ip in BDF1 mice, survival T/C"
  group: "inactive"
- molecule: "COC(=O)C(CCC(=O)O)NC(=O)C(F)(F)F (stereo not drawn)"
  tested target: "L1210 leukemia ip in BDF1 mice, survival T/C"
  group: "inactive"
- molecule: "CC(=O)NC(C)(SC(C)=O)C(=O)O (stereo not drawn)"
  tested target: "L1210 leukemia ip in BDF1 mice, survival T/C"
  group: "inactive"
- molecule: "Nc1ccc(CCc2nc(N)[nH]c(=O)c2CCCCc2ccccc2)cc1"
  tested target: "L1210 leukemia ip in BDF1 mice, survival T/C"
  group: "inactive"
- molecule: "CCCCCCCCCCCCCOc1ccc2ccccc2c1"
  tested target: "L1210 leukemia ip in BDF1 mice, survival T/C"
  group: "active"
- molecule: "O=C(O)C/C=C/c1ccccc1Br"
  tested target: "L1210 leukemia ip in BDF1 mice, survival T/C"
  group: "inactive"
- molecule: "Cc1ccc(-n2c(O)c(N=Nc3ccccc3C)c(=O)n(-c3ccc(Cl)cc3)c2=S)cc1"
  tested target: "L1210 leukemia ip in BDF1 mice, survival T/C"
  group: "inactive"
- molecule: "O=c1c(Cl)c(C(Cl)(Cl)Cl)n(O)c2ccccc12"
  tested target: "L1210 leukemia ip in BDF1 mice, survival T/C"
  group: "inactive"
- molecule: "CCCC(C(O)CC)[N+](=O)[O-] (stereo not drawn)"
  tested target: "L1210 leukemia ip in BDF1 mice, survival T/C"
  group: "inactive"
- molecule: "Cc1ncc(C#N)n1C(C)c1ccccc1 (stereo not drawn)"
  tested target: "L1210 leukemia ip in BDF1 mice, survival T/C"
  group: "inactive"
- molecule: "Cc1ccc2ccc3ccc4ccccc4c3c2c1"
  tested target: "L1210 leukemia ip in BDF1 mice, survival T/C"
  group: "inactive"
